The following are reported IC50 results, target or system GST-tagged SIK2 (Homo sapiens (Human)).
Answers are plain numbers, in nM.

Would you please look over these solved cases?
molecule | quantity_measured | value_unit | result
COc1cc(-c2c3c(OC)cc(-c4cnn(C)c4)cc3nn2C)cc(OC(F)F)c1C(=O)N1CC(O)(C(F)(F)F)C1 [Example 13] | IC50 | nM | 7.2
COc1cc(-c2c3c(C#N)cc(-c4cnn(C)c4)cc3nn2C)cc(OC(F)F)c1C(=O)N1CC(OC(F)F)C1 [Example 9] | IC50 | nM | 12.2

Okay, now this molecule:
For the record COc1cc(-c2c3c(C(F)F)cc(-c4cn[nH]c4)cc3nn2C)cc(OC(F)F)c1C(=O)N1CC(O)(C(F)(F)F)C1 [Example 68] , what value of IC50 is listed for GST-tagged SIK2 (Homo sapiens (Human))?
14.2

---

Target: GST-tagged SIK1 (Homo sapiens (Human))
Sequence (P57059 whole entry): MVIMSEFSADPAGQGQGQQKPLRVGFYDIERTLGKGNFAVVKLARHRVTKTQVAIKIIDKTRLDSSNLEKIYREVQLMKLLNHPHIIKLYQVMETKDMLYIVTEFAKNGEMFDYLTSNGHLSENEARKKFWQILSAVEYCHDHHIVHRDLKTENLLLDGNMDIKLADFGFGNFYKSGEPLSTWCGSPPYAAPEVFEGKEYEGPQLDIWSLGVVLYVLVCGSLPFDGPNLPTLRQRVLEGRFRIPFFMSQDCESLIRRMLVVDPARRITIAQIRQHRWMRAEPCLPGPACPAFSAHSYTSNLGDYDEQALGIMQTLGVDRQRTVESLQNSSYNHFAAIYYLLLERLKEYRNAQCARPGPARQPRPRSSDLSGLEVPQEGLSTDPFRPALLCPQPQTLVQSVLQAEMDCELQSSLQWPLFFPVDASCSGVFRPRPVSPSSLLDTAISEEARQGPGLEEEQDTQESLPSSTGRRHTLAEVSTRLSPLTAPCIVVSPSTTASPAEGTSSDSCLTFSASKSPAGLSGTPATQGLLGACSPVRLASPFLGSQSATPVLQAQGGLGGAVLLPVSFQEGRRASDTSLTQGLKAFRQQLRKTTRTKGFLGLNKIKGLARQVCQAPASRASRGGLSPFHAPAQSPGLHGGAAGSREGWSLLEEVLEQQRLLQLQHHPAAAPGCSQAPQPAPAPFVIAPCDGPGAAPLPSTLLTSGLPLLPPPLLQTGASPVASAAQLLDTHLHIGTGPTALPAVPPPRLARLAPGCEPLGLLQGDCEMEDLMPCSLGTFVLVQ
IC50 strictly under 8 nM means Criterion met; at 8 nM or over means Criterion not met.

These solved cases illustrate the format of a correct answer.
molecule | assigned_category
COc1cc(-c2c3c(C#N)cc(-c4cnn(CC5CCS5(=O)=O)c4)cc3nn2C)cc(OC(F)F)c1C(=O)NCC1(F)CC1 (stereo not shown) | Criterion not met
COc1cc(-c2c3c(C#N)cc(-c4cnn(CC5CS(=O)(=O)C5)c4)cc3nn2C)cc(OC(F)F)c1C(=O)NCC1(F)CC1 | Criterion not met
COc1cc(-c2c3c(OC(F)F)cc(-c4cn(C)nn4)cc3nn2C)cc(OC(F)F)c1C(=O)N1CC(O)(C(F)F)C1 | Criterion met
COc1cc(-c2c3c(OCc4cnn(C)c4)cc(-c4cnn(C)c4)cc3nn2C)cc(OC(F)F)c1C(=O)N1CC(O)(C(F)(F)F)C1 | Criterion met

Below 8 nM on IC50? Entry COc1cc(-c2cnn(C[C@H](C)O)c2)cc2nn(C)c(-c3cc(OC(F)F)c4c(c3)[C@@H](C)CNC4=O)c12 (single isomer, unassigned) [Example 176]
Criterion not met

Is 8 nM strictly greater than the molecule's reported IC50? molecule: `COc1cc(-c2c3c(OC)cc(-c4cnn(C)c4)cc3nn2C)cc(OC(F)F)c1C(N)=O`
Criterion not met

Identify whether the molecule `COc1cc(-c2c3c(OCC4CC4)cc(-c4cnn(C)c4)cc3nn2C)cc(OC(F)F)c1C(=O)N1CC(O)(C(F)(F)F)C1` records IC50 below 8 nM.
Criterion not met

Dear reviewer, please state whether `COCCn1cc(-c2cc(OC(F)F)c3c(-c4cc(OC)c(C(N)=O)c(OC(F)F)c4)n(C)nc3c2)cn1` has IC50 strictly beneath 8 nM.
Criterion met

hey, is IC50 for `COc1cc(-c2c3c(C(F)F)cc(-c4cnn([C@H]5CCOC5)c4)cc3nn2C)cc(OC(F)F)c1C(N)=O` lower than 8 nM or not?
Criterion not met

Is IC50 of CCn1cc(-c2cc(OC)c3c(-c4cc(OC(F)F)c5c(c4)[C@@H](C)CNC5=O)n(C)nc3c2)cn1 (single isomer, unassigned) strictly below 8 nM?
Criterion not met
